- Test system: HL-60(TB) leukemia
- assay.overview: NCI-60 one-dose screen, 48 h
- conditions.used: 10 µM unless noted
This is part of a sample that, as a whole, favours compounds with a hit. Of some 83,000 tested, about 20% had one in any assay. Active and inactive are the calls of the source. Rule for the calls: active = growth percent below 10; inactive = the rest.
Lab note: assign the record to one of active, inactive

Reference set, count: 3
molecule	qualitative.label
CC(=O)N1N=C(c2ccc(Nc3nc(Nc4ccc(F)cc4)nc(Nc4ccc(Cl)cc4)n3)cc2)CC1c1ccc(Cl)cc1 (stereo not given)	inactive
CCOc1ccc2c(c1)CC[C@@H]1[C@@H]2CC[C@]2(C)[C@@H](O)[C@@H](O)C[C@@H]12	inactive
O=C(c1nc2ccccc2[nH]1)C1[C@@H](c2cccc(O)c2)C2CC3CCCCC3N2[C@@]12C(=O)Nc1cc(Cl)ccc12 (stereo not given in full)	active

Hi team, can someone confirm the assay call for OCCN1CCOCC1 ? inactive

Item: COc1cc2ncnc(-n3ncc4cc(NC(=O)Nc5ccccc5)ccc43)c2cc1OC active

Item: Cc1c(N2CCCCC2)[nH]c2ccccc12 inactive
